- SUBJECT_OF_TEST: human somatostatin receptor subtype 2 (Homo sapiens, UniProt P30874)
- Construct: expressed in transfected cells
- Sequence (P30874 whole entry): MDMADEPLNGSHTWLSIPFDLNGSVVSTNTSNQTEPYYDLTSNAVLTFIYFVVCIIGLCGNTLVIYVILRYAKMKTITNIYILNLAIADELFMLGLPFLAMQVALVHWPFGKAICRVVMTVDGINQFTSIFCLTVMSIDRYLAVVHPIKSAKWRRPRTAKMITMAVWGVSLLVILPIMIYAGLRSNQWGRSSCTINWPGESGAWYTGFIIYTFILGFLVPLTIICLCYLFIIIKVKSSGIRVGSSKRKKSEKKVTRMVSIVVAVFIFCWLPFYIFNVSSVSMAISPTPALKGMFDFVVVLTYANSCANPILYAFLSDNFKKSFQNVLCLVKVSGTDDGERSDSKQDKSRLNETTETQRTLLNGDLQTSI
- TEST_NAME: Functional assay for SSTR2 agonists (HTRF cAMP)
- Assay type: cell-based
- CONDITION_SUMMARY: CHO-K1 cells stably expressing human SST2; NKH477-stimulated cAMP; 20 min at 37 C; read-out: hSST2 cAMP Avg EC50
Listing: pEC50 of selected molecules
Answer as the number alone; pEC50 is minus log10 of concentration in mol/L.

Study these solved cases before continuing.
CC[C@H](C)[C@@H]([C@@H](CC(=O)N1CCC[C@H]1[C@H](OC)[C@@H](C)C(=O)N[C@H](C)[C@@H](O)c1ccccc1)OC)N(C)C(=O)[C@@H](NC(=O)[C@H](C(C)C)N(C)C(=O)OCc1ccc(NC(=O)[C@H](CCCNC(N)=O)NC(=O)[C@@H](NC(=O)c2cc(NC(=O)CCOCCOCCOCCOCCC(=O)NCCNc3ncc(-c4cc(C)cc(F)c4)c(N4CCC(N)CC4)c3-c3nc4ccc(Cl)cc4[nH]3)cc(C(=O)NCC(=O)O)c2)C(C)C)cc1)C(C)C = 10.08
CC[C@H](C)[C@@H]([C@@H](CC(=O)N1CCC[C@H]1[C@H](OC)[C@@H](C)C(=O)N[C@H](C)[C@@H](O)c1ccccc1)OC)N(C)C(=O)[C@@H](NC(=O)[C@H](C(C)C)N(C)C(=O)OCc1ccc(NC(=O)[C@H](CCCNC(N)=O)NC(=O)[C@@H](NC(=O)c2cc(NCCOCCC(=O)NCCNc3ncc(-c4cc(C)cc(F)c4)c(N4CCC(N)CC4)c3-c3nc4ccc(Cl)cc4[nH]3)cc(C(=O)NCCN)c2)C(C)C)cc1)C(C)C = 10.20

Would you kindly look at the next entry?
Please fill in: pEC50 reported for CC[C@H](C)[C@@H]([C@@H](CC(=O)N1CCC[C@H]1[C@H](OC)[C@@H](C)C(=O)N[C@H](C)[C@@H](O)c1ccccc1)OC)N(C)C(=O)[C@@H](NC(=O)[C@H](C(C)C)N(C)C(=O)OCc1ccc(NC(=O)[C@H](C)NC(=O)[C@@H](NC(=O)CCOCCOCCOCCOCCC(=O)NCCNc2ncc(-c3cc(C)cc(F)c3)c(N3CCC(N)CC3)c2-c2nc3ccc(Cl)cc3[nH]2)C(C)C)c(OCC(=O)O)c1)C(C)C = 10.43

---

- SUBJECT_OF_TEST: human somatostatin receptor subtype 2 (Homo sapiens, UniProt P30874)
- Construct: expressed in transfected cells
- TEST_NAME: Functional assay for SSTR2 agonists (HTRF cAMP)
- Format: cell-based
- CONDITION_SUMMARY: CHO-K1 cells stably expressing human SST2; NKH477-stimulated cAMP; 20 min at 37 C; read-out: hSST2 cAMP Avg EC50
ENDPOINT_NAME: EC50 (nM)
# unit: nM | format: bare number

CC[C@H](C)[C@@H]([C@@H](CC(=O)N1CCC[C@H]1[C@H](OC)[C@@H](C)C(=O)N[C@H](C)[C@@H](O)c1ccccc1)OC)N(C)C(=O)[C@@H](NC(=O)[C@H](C(C)C)N(C)C(=O)OCc1ccc(NC(=O)[C@H](CCCNC(N)=O)NC(=O)[C@@H](NC(=O)C2(C(=O)NCCOCCC(=O)NCCNc3ncc(-c4cc(C)cc(F)c4)c(N4CCC(N)CC4)c3-c3nc4ccc(Cl)cc4[nH]3)CCC2)C(C)C)cc1C(=O)NCCN)C(C)C = 0.094

// next entry
Field EC50 (entry CC[C@H](C)[C@@H]([C@@H](CC(=O)N1CCC[C@H]1[C@H](OC)[C@@H](C)C(=O)N[C@H](C)[C@@H](O)c1ccccc1)OC)N(C)C(=O)[C@@H](NC(=O)[C@H](C(C)C)N(C)C(=O)OCc1ccc(NC(=O)[C@H](CCCNC(N)=O)NC(=O)[C@@H](NC(=O)CCOCCC(=O)NCCNc2ncc(-c3cc(C)cc(F)c3)c(N3CCC(N)CC3)c2-c2nc3ccc(Cl)cc3[nH]2)C(C)C)c(O[C@@H]2O[C@H](C(=O)NCCNC(=O)CCCCCO[PH](=O)OC3CCC(c4ccccc4)(c4ccccc4)CC3)[C@@H](O)[C@H](O)[C@H]2O)c1)C(C)C (some centres unmarked) ) reads 1

---

- SUBJECT_OF_TEST: SST2 (Homo sapiens)
- Construct: host or cells: PathHunter CHO-K1 SST2 cells
- Sequence (P30874 whole entry): as above
- TEST_NAME: PathHunter CHO-K1 SST2 Internalization Assay
- Type: cell-based
- CONDITION_SUMMARY: PathHunter CHO-K1 SST2 cells; 90 min at 37 C; luminescence; read-out: Internalization EC50
ENDPOINT_NAME: pEC50
Give only the number. pEC50 is defined as minus log10 of concentration in molar units.

In the examples that follow, each entry is paired with its recorded pEC50.
CC[C@H](C)[C@@H]([C@@H](CC(=O)N1CCC[C@H]1[C@H](OC)[C@@H](C)C(=O)N[C@H](C)[C@@H](O)c1ccccc1)OC)N(C)C(=O)[C@@H](NC(=O)[C@H](C(C)C)N(C)C(=O)OCc1ccc(NC(=O)[C@H](CCCNC(N)=O)NC(=O)[C@@H](NC(=O)[C@H](Cc2c[nH]cn2)NC(=O)CCOCCC(=O)NCCNc2ncc(-c3cc(C)cc(F)c3)c(N3CCC(N)CC3)c2-c2nc3ccc(Cl)cc3[nH]2)C(C)C)c(O[C@@H]2C[C@H](C(=O)O)[C@@H](O)[C@H](O)[C@H]2O)c1)C(C)C [Compound 243] = 8.49
CC[C@H](C)[C@@H]([C@@H](CC(=O)N1CCC[C@H]1[C@H](OC)[C@@H](C)C(=O)N[C@H](C)[C@@H](O)c1ccccc1)OC)N(C)C(=O)[C@@H](NC(=O)[C@H](C(C)C)N(C)C(=O)OCc1ccc(NC(=O)[C@H](CCCNC(N)=O)NC(=O)[C@@H](NC(=O)CCOCCC(=O)NCCNc2ncc(-c3cc(C)cc(F)c3)c(N3CCC(N)CC3)c2-c2nc3ccc(Cl)cc3[nH]2)C(C)C)c(O[C@@H]2O[C@H](C(=O)NCCC(=O)N[C@@H](CCCCNC(=O)CCCCc3ccc(I)cc3)C(=O)O)[C@@H](O)[C@H](O)[C@H]2O)c1)C(C)C [Compound 55] = 8.70
CC[C@H](C)[C@@H]([C@@H](CC(=O)N1CCC[C@H]1[C@H](OC)[C@@H](C)C(=O)N[C@H](C)[C@@H](O)c1ccccc1)OC)N(C)C(=O)[C@@H](NC(=O)[C@H](C(C)C)N(C)C(=O)OCc1ccc(NC(=O)[C@H](CCCNC(N)=O)NC(=O)[C@@H](NC(=O)[C@H](CCC(=O)O)NC(=O)CCOCCC(=O)NCCNc2ncc(-c3cc(C)cc(F)c3)c(N3CCC(N)CC3)c2-c2nc3ccc(Cl)cc3[nH]2)C(C)C)c(C)c1)C(C)C [Compound 15] = 7.77

# pEC50 (compound: CC[C@H](C)[C@@H]([C@@H](CC(=O)N1CCC[C@H]1[C@H](OC)[C@@H](C)C(=O)N[C@H](C)[C@@H](O)c1ccccc1)OC)N(C)C(=O)[C@@H](NC(=O)[C@H](C(C)C)N(C)C(=O)OCc1ccc(NC(=O)[C@H](CCCNC(N)=O)NC(=O)[C@@H](NC(=O)c2cc(NC(=O)CCCC(=O)N(C)CC(=O)NCCNc3ncc(-c4cc(C)cc(F)c4)c(N4CCC(N)CC4)c3-c3nc4ccc(F)cc4[nH]3)cc(C(=O)NCC(=O)O)c2)C(C)C)cc1)C(C)C [Compound 169] ) is 8.00

Lab note: CC[C@H](C)[C@@H]([C@@H](CC(=O)N1CCC[C@H]1[C@H](OC)[C@@H](C)C(=O)N[C@H](C)[C@@H](O)c1ccccc1)OC)N(C)C(=O)[C@@H](NC(=O)[C@H](C(C)C)N(C)C(=O)OCc1ccc(NC(=O)[C@H](CCCNC(N)=O)NC(=O)[C@@H](NC(=O)[C@@H](CS(=O)(=O)O)NC(=O)CCOCCC(=O)NCCNc2ncc(-c3cc(C)cc(F)c3)c(N3CCC(N)CC3)c2-c2nc3ccc(Cl)cc3[nH]2)C(C)C)cc1C(=O)NCCN)C(C)C [Compound 29] gave pEC50 of 8.07

---

- SUBJECT_OF_TEST: human somatostatin receptor subtype 2 (Homo sapiens, UniProt P30874)
- Construct: expressed in transfected cells
- TEST_NAME: Functional assay for SSTR2 agonists (HTRF cAMP)
- Assay type: cell-based
- CONDITION_SUMMARY: CHO-K1 cells stably expressing human SST2; NKH477-stimulated cAMP; 20 min at 37 C; read-out: hSST2 cAMP Avg EC50
ENDPOINT_NAME: pEC50
The quantity pEC50 is defined as the negative base-10 logarithm of the molar concentration.

Solved entries:
CC[C@H](C)[C@@H]([C@@H](CC(=O)N1CCC[C@H]1[C@H](OC)[C@@H](C)C(=O)N[C@H](C)[C@@H](O)c1ccccc1)OC)N(C)C(=O)[C@@H](NC(=O)[C@H](C(C)C)N(C)C(=O)OCc1ccc(NC(=O)[C@H](C)NC(=O)[C@@H](NC(=O)CCCC(=O)N(C)CC(=O)NCCNc2ncc(-c3cc(C)cc(F)c3)c(N3CCC(N)CC3)c2-c2nc3ccc(Cl)cc3[nH]2)C(C)C)c(O[C@@H]2O[C@H](C(=O)NCCN)[C@@H](O)[C@H](O)[C@H]2O)c1)C(C)C [Compound 45] = 8.89
CC[C@H](C)[C@@H]([C@@H](CC(=O)N1CCC[C@H]1[C@H](OC)[C@@H](C)C(=O)N[C@H](C)[C@@H](O)c1ccccc1)OC)N(C)C(=O)[C@@H](NC(=O)[C@H](C(C)C)N(C)C(=O)OCc1ccc(NC(=O)[C@H](C)NC(=O)[C@@H](NC(=O)[C@@H](CS(=O)(=O)O)NC(=O)CCOCCC(=O)NCCNc2ncc(-c3cc(C)cc(F)c3)c(N3CCC(N)CC3)c2-c2nc3ccc(Cl)cc3[nH]2)C(C)C)c(O[C@@H]2O[C@H](C(=O)NCCN)[C@@H](O)[C@H](O)[C@H]2O)c1)C(C)C [Compound 41] = 10.09
CC[C@H](C)[C@@H]([C@@H](CC(=O)N1CCC[C@H]1[C@H](OC)[C@@H](C)C(=O)N[C@H](C)[C@@H](O)c1ccccc1)OC)N(C)C(=O)[C@@H](NC(=O)[C@H](C(C)C)N(C)C(=O)OCc1ccc(NC(=O)[C@H](C)NC(=O)[C@@H](NC(=O)CCOCCC(=O)N(C)CC(=O)NCCNc2ncc(-c3cc(C)cc(F)c3)c(N3CCC(N)CC3)c2-c2cc3ccc(Cl)cc3[nH]2)C(C)C)c(O[C@@H]2O[C@H](C(=O)NCCN)[C@@H](O)[C@H](O)[C@H]2O)c1)C(C)C [Compound 47] = 9.51
CC[C@H](C)[C@@H]([C@@H](CC(=O)N1CCC[C@H]1[C@H](OC)[C@@H](C)C(=O)N[C@H](C)[C@@H](O)c1ccccc1)OC)N(C)C(=O)[C@@H](NC(=O)[C@H](C(C)C)N(C)C(=O)OCc1ccc(NC(=O)[C@H](CCCNC(N)=O)NC(=O)[C@@H](NC(=O)CCOCCOCCOCCOCCC(=O)N(C)CC(=O)NCCNc2ncc(-c3cc(C)cc(F)c3)c(N3CCC(N)CC3)c2-c2nc3ccc(Cl)cc3[nH]2)C(C)C)c(OCC(=O)O)c1)C(C)C [Compound 24] = 9.70

Here's the next entry for you.
Looking up CC[C@H](C)[C@@H]([C@@H](CC(=O)N1CCC[C@H]1[C@H](OC)[C@@H](C)C(=O)N[C@H](C)[C@@H](O)c1ccccc1)OC)N(C)C(=O)[C@@H](NC(=O)[C@H](C(C)C)N(C)C(=O)OCc1ccc(NC(=O)[C@H](CCCNC(N)=O)NC(=O)[C@@H](NC(=O)c2cc(C(=O)NCC(=O)O)cc(N(C)CCOCCC(=O)NCCNc3ncc(-c4cc(C)cc(F)c4)c(N4CCC(N)CC4)c3-c3nc4ccc(Cl)cc4[nH]3)c2)C(C)C)cc1)C(C)C [Compound 158] , I found its pEC50 recorded as 9.82
